# System: Bacillus Subtilis ATCC107O7
# PROTOCOL: Antibacterial activity, agar dilution method
# Assay type: cell-based
# TEST_SETTINGS: pH 7
Criterion: MIC, BS strictly less than 10 µg/mL. Met: yes. Not met: no.

[
  {
    "MOLECULE": "COC(=O)NC1C(C)OC(OC2CC=C(C)C3C=CC4C(OC5C=CC(OC(C)=O)C(C)O5)C(C)CC(C)C4C3(C)C(=O)C3=C(O)C4(CC(C=O)=CC(OC(C)=O)C4C=C2C)OC3=O)CC1(C)[N+](=O)[O-] (stereo not drawn)",
    "TARGET": "Bacillus Subtilis ATCC107O7",
    "ASSIGNED_CLASS": "no"
  },
  {
    "MOLECULE": "COC(=O)C=CC1=CC(O)C2/C=C(\\C)C(OC3CC(C)([N+](=O)[O-])C(NC(=O)OC)C(C)O3)C/C=C(\\C)C3C=CC4C(OC5CC(OC6CCC(OC7CC(O)C(OC8CCC(O)C(C)O8)C(C)O7)C(C)O6)C(OC(C)=O)C(C)O5)C(C)CC(C)C4C3(C)C(=O)C3=C(O)C2(C1)OC3=O (stereo not drawn)",
    "TARGET": "Bacillus Subtilis ATCC107O7",
    "ASSIGNED_CLASS": "yes"
  },
  {
    "MOLECULE": "COC(=O)NC1C(C)OC(OC2CC=C(C)C3C=CC4C(OC5(C)OC6OC(COC(C)=O)C(OC(C)=O)C(OC(C)=O)C6O5)C(C)CC(C)C4C3(C)C(=O)C3=C(O)C4(CC(C=O)=CC(OC(C)=O)C4C=C2C)OC3=O)CC1(C)[N+](=O)[O-] (stereo not drawn)",
    "TARGET": "Bacillus Subtilis ATCC107O7",
    "ASSIGNED_CLASS": "no"
  },
  {
    "MOLECULE": "COC(=O)NC1C(C)OC(OC2C/C=C(\\C)C3C=CC4C(OC5CCCCO5)C(C)CC(C)C4C3(C)C(=O)C3=C(O)C4(CC(C=O)=CC(OC(C)=O)C4/C=C/2C)OC3=O)CC1(C)[N+](=O)[O-] (stereo not drawn)",
    "TARGET": "Bacillus Subtilis ATCC107O7",
    "ASSIGNED_CLASS": "yes"
  },
  {
    "MOLECULE": "CCOC(OCC)C1=CC(O)C2/C=C(\\C)C(OC3CC(C)([N+](=O)[O-])C(NC(=O)OC)C(C)O3)C/C=C(\\C)C3C=CC4C(OC5CC(OC6CCC(OC7CC(O)C(OC8CCC(O)C(C)O8)C(C)O7)C(C)O6)C(OC(C)=O)C(C)O5)C(C)CC(C)C4C3(C)C(=O)C3=C(OC)C2(C1)OC3=O (stereo not drawn)",
    "TARGET": "Bacillus Subtilis ATCC107O7",
    "ASSIGNED_CLASS": "no"
  },
  {
    "MOLECULE": "COC(=O)NC1C(C)OC(OC2C/C=C(\\C)C3C=CC4C(OC5CC(OC6CCC(OC7CC(O)C(O)C(C)O7)C(C)O6)C(OC(C)=O)C(C)O5)C(C)CC(C)C4C3(C)C(=O)C3=C(O)C4(CC(C=NO)=CC(O)C4/C=C/2C)OC3=O)CC1(C)[N+](=O)[O-] (stereo not drawn)",
    "TARGET": "Bacillus Subtilis ATCC107O7",
    "ASSIGNED_CLASS": "yes"
  },
  {
    "MOLECULE": "CC[Si](CC)(CC)OC1C=CC(OC2C(C)CC(C)C3C2C=CC2C(C)=CCC(OC4CC(C)([N+](=O)[O-])C(NC(=O)OC)C(C)O4)C(C)=CC4C(OC(C)=O)C=C(C=O)CC45OC(=O)C(=C5O)C(=O)C23C)OC1C (stereo not drawn)",
    "TARGET": "Bacillus Subtilis ATCC107O7",
    "ASSIGNED_CLASS": "no"
  },
  {
    "MOLECULE": "COC(=O)NC1C(C)OC(OC2C/C=C(\\C)C3C=CC4C(OC5CC(OC6CCC(O)C(C)O6)C(OC(C)=O)C(C)O5)C(C)CC(C)C4C3(C)C(=O)C3=C(O)C4(CC(C=NO)=CC(O)C4/C=C/2C)OC3=O)CC1(C)[N+](=O)[O-] (stereo not drawn)",
    "TARGET": "Bacillus Subtilis ATCC107O7",
    "ASSIGNED_CLASS": "no"
  },
  {
    "MOLECULE": "COC(=O)NC1C(C)OC(OC2CC=C(C)C3C=CC4C(OC5C=CC(O)C(C)O5)C(C)CC(C)C4C3(C)C(=O)C3=C(O)C4(CC(C=O)=CC(OC(C)=O)C4C=C2C)OC3=O)CC1(C)[N+](=O)[O-] (stereo not drawn)",
    "TARGET": "Bacillus Subtilis ATCC107O7",
    "ASSIGNED_CLASS": "no"
  },
  {
    "MOLECULE": "COC(=O)NC1C(C)OC(OC2C/C=C(\\C)C3C=CC4C(OC5CC(OC6CCC(OC7CC(OC(C)=O)C(O)C(C)O7)C(C)O6)C(OC(C)=O)C(C)O5)C(C)CC(C)C4C3(C)C(=O)C3=C(O)C4(CC(C=O)=CC(OC(C)=O)C4/C=C/2C)OC3=O)CC1(C)[N+](=O)[O-] (stereo not drawn)",
    "TARGET": "Bacillus Subtilis ATCC107O7",
    "ASSIGNED_CLASS": "yes"
  },
  {
    "MOLECULE": "COC(=O)NC1C(C)OC(OC2CC=C(C)C3C=CC4C(OC5CC(OC(C)=O)C(OC(C)=O)C(C)O5)C(C)CC(C)C4C3(C)C(=O)C3=C(O)C4(CC(C=O)=CC(OC(C)=O)C4C=C2C)OC3=O)CC1(C)[N+](=O)[O-] (stereo not drawn)",
    "TARGET": "Bacillus Subtilis ATCC107O7",
    "ASSIGNED_CLASS": "no"
  }
]

Sourced from patent US6548536B2
